The reported numbers originate from PubChem BioAssay (NCATS).

system: CP203; assay: qHTS profiling for inhibitors of Plasmodium falciparum proliferation (AID 504749); note: nearly all actives have a fitted effect of over 60% in size; details: P. falciparum in erythrocytes, SYBR Green DNA, 72 h; series mostly up to 28.7 µM
Results filed as inconclusive are left out. The source made the active and inactive calls. Calls come from the whole dose curve; as a rule, active = well fitted inhibition curve with a large enough effect; inconclusive = small, poorly fitted or top-dose-only effect; inactive = flat fitted curve, though single readings scatter.
Mark one answer only. Choices: 1 = active, -1 = inactive

Example results:
{"columns": ["compound", "category"],
 "data": [
  ["O=C(CCCN1CCN2CCCC2C1)c1ccc(F)cc1 (configuration not stated)", -1],
  ["CC12CCC(C[N+](C)(CCC[N+](C)(C)C)C1)C2(C)C (configuration not stated)", -1],
  ["O=C(O)CCCC/C=C(\\c1ccccc1)c1cccnc1", -1],
  ["CCCCC/C=C\\C/C=C\\C/C=C\\CCCCC(=O)O", -1],
  ["CC(=O)Nc1ccc(OC(C)=O)cc1", -1]
]}

Input line: What did this assay record as the result for NC(N)=NCC1COc2ccccc2O1 (configuration not stated) ?
Output line: -1

Input line: What did this assay record as the result for `NC(=O)C1c2ccccc2CCc2ccccc21` ?
Output line: -1

Input line: What did this assay record as the result for CC1CCC(NC(=O)N(CCCl)N=O)CC1 (configuration not stated) ?
Output line: -1

Input line: What did this assay record as the result for `Cc1ccccn1` ?
Output line: -1

Input line: What did this assay record as the result for `Nc1ncnc2c1ncn2[C@H]1CC[C@@H](CO)O1` ?
Output line: -1

Input line: What did this assay record as the result for `O.O.O.O.O.O.O.O=S(=O)([O-])[O-].[Co+2]` ?
Output line: 1

Input line: What did this assay record as the result for `C[C@H](CCCC(C)(C)O)[C@H]1CC[C@H]2[C@@H]3CC=C4C[C@@H](O)CC[C@]4(C)[C@H]3CC[C@]12C` ?
Output line: -1

Input line: What did this assay record as the result for `OCl` ?
Output line: -1

Input line: What did this assay record as the result for `CC(C)(C)CC(C)(C)c1cc(Cc2cc(C(C)(C)CC(C)(C)C)cc(-n3nc4ccccc4n3)c2O)c(O)c(-n2nc3ccccc3n2)c1` ?
Output line: -1

Input line: What did this assay record as the result for `CCCCCCCCCCCCCCCCCC[N+](C)(C)CCC[Si](OC)(OC)OC` ?
Output line: -1

Input line: What did this assay record as the result for `Nc1ncnc2c1ncn2CCOCP(=O)(O)O` ?
Output line: -1

Input line: What did this assay record as the result for `O=C(O)c1ccc(NC(=O)[C@H](Cc2ccc(O)cc2)NC(=O)c2ccccc2)cc1` ?
Output line: -1

Input line: What did this assay record as the result for CC(C)NCC(O)COc1ccccc1-n1cccc1 (configuration not stated) ?
Output line: -1

Input line: What did this assay record as the result for `CCCc1nc(C(C)(C)O)c(C(=O)OCc2oc(=O)oc2C)n1Cc1ccc(-c2ccccc2-c2nn[nH]n2)cc1` ?
Output line: -1

Input line: What did this assay record as the result for `NCCN` ?
Output line: -1

Input line: What did this assay record as the result for `O=C1c2ccccc2CN2C(=O)c3ccccc3CN12` ?
Output line: -1

Input line: What did this assay record as the result for `O=C(O)C1=C(CSc2nnnn2CS(=O)(=O)O)CS[C@@H]2[C@H](NC(=O)[C@H](O)c3ccccc3)C(=O)N12` ?
Output line: -1

Input line: What did this assay record as the result for `CC(=O)Nc1c(I)c(C(=O)O)c(I)c(N(C)C(C)=O)c1I` ?
Output line: -1

Input line: What did this assay record as the result for `CN(C)c1ccc(C(=C2C=CC(=[N+](C)C)C=C2)c2c(O)c(S(=O)(=O)[O-])cc3cc(S(=O)(=O)O)ccc23)cc1` ?
Output line: -1

Input line: What did this assay record as the result for `CCCCCCOC(=O)c1cccnc1` ?
Output line: -1
